Molecular target: Corticotropin-releasing factor receptor 2/Corticotropin-releasing factor-binding protein (Homo sapiens, UniProt P24387+Q13324)
Sequence (Q13324 whole entry): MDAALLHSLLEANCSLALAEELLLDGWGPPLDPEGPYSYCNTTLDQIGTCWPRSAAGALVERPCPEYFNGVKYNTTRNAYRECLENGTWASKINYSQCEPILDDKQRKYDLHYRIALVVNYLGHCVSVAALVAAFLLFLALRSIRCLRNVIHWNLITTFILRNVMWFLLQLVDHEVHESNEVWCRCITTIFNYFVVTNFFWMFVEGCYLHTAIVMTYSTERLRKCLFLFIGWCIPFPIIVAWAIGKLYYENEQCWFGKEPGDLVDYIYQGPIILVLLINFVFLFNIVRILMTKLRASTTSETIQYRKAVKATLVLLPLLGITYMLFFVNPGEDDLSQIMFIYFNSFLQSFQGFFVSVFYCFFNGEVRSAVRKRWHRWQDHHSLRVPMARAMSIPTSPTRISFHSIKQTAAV
Sequence (P24387 whole entry): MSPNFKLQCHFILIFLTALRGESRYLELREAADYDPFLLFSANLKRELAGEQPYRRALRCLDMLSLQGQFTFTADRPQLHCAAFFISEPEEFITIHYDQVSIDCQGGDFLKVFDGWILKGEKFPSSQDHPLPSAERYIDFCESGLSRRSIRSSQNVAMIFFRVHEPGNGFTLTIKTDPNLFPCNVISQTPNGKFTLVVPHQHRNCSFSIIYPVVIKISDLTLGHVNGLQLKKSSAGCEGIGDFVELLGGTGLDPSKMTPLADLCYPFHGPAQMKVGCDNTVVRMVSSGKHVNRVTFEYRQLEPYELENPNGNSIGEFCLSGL
Experiment: activators of CRF receptor 2 with binding protein – uHTS hits, confirmation (AID 602473)
Assay type: functional
Conditions: read-out: EC50_Mean
Calls of active or inactive are those of the source.
Write down the outcome that applies. Available outcomes: t for active, f for inactive

Solved entries:
{"columns": ["molecule", "label value"],
 "data": [
  ["CC1=CC(C)(C)N2C(=O)C3(C(C#N)=C(N)Oc4cc(O)ccc43)c3c(C)c(C)cc1c32 (stereo not drawn)", "f"],
  ["COc1ccc(S(=O)(=O)N2CCCCCC2)cc1C(=O)N(C)Cc1ccc(Cl)cc1Cl", "t"],
  ["Cc1ccccc1-c1cc2nc(-c3ccc([N+](=O)[O-])cc3)cc(O)n2n1", "f"],
  ["Cc1ccnc(N2CCCC(C(=O)NC3CC3)C2)n1 (stereo not drawn)", "f"],
  ["Cc1nn(S(=O)(=O)c2cccs2)c(C)c1Sc1ccc([N+](=O)[O-])cc1", "f"],
  ["O=C(COC(=O)c1ccc([N+](=O)[O-])s1)Nc1cccc(S(=O)(=O)/N=C2/CCCCCN2)c1", "f"]
]}

Field: next molecule
Check the results log: what was the call for CCOC(=O)c1cc(C#N)c(N2CCN(c3ccccn3)CC2)nc1-c1ccccc1 ?
f

###

Target: Trace amine-associated receptor 1 (Homo sapiens, UniProt Q96RJ0)
Sequence (Q96RJ0 whole entry): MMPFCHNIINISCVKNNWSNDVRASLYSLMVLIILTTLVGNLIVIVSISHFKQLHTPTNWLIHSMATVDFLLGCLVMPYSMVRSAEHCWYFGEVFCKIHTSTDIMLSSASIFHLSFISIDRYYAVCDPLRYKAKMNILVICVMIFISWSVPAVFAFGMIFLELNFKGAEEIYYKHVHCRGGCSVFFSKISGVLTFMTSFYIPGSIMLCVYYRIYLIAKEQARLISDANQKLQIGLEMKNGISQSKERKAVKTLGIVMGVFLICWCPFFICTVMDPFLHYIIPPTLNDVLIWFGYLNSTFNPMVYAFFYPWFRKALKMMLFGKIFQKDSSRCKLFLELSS
Test: Fluorescence-based cell-based high throughput dose response assay to identify agonists of the human trace amine associated receptor 1 (TAAR1).
Type: functional
Structures can show the parent of a compound that is named as a salt. Active and inactive are the calls of the source.
Please state which outcome applies, choosing from TRUE (active), FALSE (inactive)

Reference set, count: 3
{"columns": ["compound", "label value"],
 "data": [
  ["O=C(Cc1nnc(O)nc1O)N/N=C/c1ccccc1", "FALSE"],
  ["CCc1ccc(N2CN(CCc3ccccc3)CN=C2S)cc1", "TRUE"],
  ["O=S(=O)(NCCc1ccccc1)c1ccc(F)cc1", "TRUE"]
]}

Turning to the following compound.
Record request — test call for c1ccc2c(c1)CCCC2C1=NCCN1 (centres undefined) [TETRAHYDROZOLINE HYDROCHLORIDE]
TRUE

###

Target: Corticotropin-releasing factor receptor 2/Corticotropin-releasing factor-binding protein (Homo sapiens, UniProt P24387+Q13324)
Assay: activators of CRF receptor 2 with binding protein – uHTS hits, confirmation (AID 602473)
Type: functional
Details: read-out: EC50_Mean
The source made the active and inactive calls.
// one of Yes for active, No for inactive, no free text

Answered examples (4):
{"columns": ["molecule", "label value"],
 "data": [
  ["CCN(CC)S(=O)(=O)c1ccc(C(=O)OCCN2C(=O)c3cccc4c(N5CCOCC5)ccc(c34)C2=O)cc1", "Yes"],
  ["Cc1cc2c(cc1S(=O)(=O)CCC(=O)NC1CCCCC1C)OCC(=O)N2 (stereo not drawn)", "No"],
  ["Cc1onc(-c2ccccc2)c1C(=O)NNC(=S)NC(=O)/C=C/c1ccccc1", "Yes"],
  ["CC(=O)Nc1ccc(S(=O)(=O)N2CCC(c3nnc(-c4ccc(C)cc4)o3)CC2)cc1", "No"]
]}

# lookup: test call for Cc1c(C(=O)NCC2CCCO2)sc2nc(-c3ccc(F)cc3)cn12 (stereo not drawn)
No

// outcome(item) with item = C[C@H]1O[C@@H](O[C@H]2CC[C@@]3(C)C(CC[C@]4(C)C3C=C[C@]35OC[C@@]6(CCC(C)(C)C[C@H]63)[C@@H](O)C[C@]54C)[C@]2(C)CO)[C@H](O)[C@@H](O[C@@H]2O[C@H](CO)[C@@H](O)[C@H](O)[C@H]2O)[C@H]1O (stereo partly drawn)
Yes

What did the test return for COC(=O)C1=C(NC(=O)c2cccc(OC)c2)CCS1 ?
No

Query: recorded result category for Nc1ccc(/C=C/C(=O)c2ccco2)cc1 in this test
Yes

###

Attribute: AC50
System: INS1
Assay: INS-1E survival protection against cytokine death – cell-based, luminescence, retest, dose response (AID 449756);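 further: cell death triggered by IL-1 beta plus TNF-alpha plus IFN-gamma mixture; protective hits raise ATP signal compared with cytokine alone wells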
Type: functional
Conditions: Rattus norvegicus
The source made the active and inactive calls.

{"columns": ["compound", "AC50"],
 "data": [
  ["COc1ccc(-n2c(CNc3ccc(C)cc3)nnc2SCC(=O)Nc2nc(-c3ccccc3)cs2)cc1", "6.07 µM (active)"],
  ["CCC(=O)NC(c1cc(Cl)c2cccnc2c1O)C(C)C (stereo not given)", "1.86 µM (active)"],
  ["CCn1cc(C(=O)O)c(=O)c2cc(F)c(N/N=C/c3ccccc3[N+](=O)[O-])cc21", "10.1 µM (active)"],
  ["CCN1CCN(c2c(Cl)cccc2NC(=O)c2ccc([N+](=O)[O-])o2)CC1", "3.68 µM (active)"]
]}

Let's switch to this compound now.
Answer with reported AC50 of Oc1ccc(Br)cc1CNc1cccc2cccnc12
3.24 µM (active)

###

Reported EC50 values for a set of molecules
Tested on: Streptococcus sp. 'group A'
Assay: Streptococcus pyogenes SK(-)GAS viability under kanamycin – luminescence, BacTiterGlo, confirmation, counter-screen for streptokinase expression inhibitor project, dose response (AID 1900)
Format: functional, organism-based
Calls of active or inactive are those of the source.

{"columns": ["molecule", "target of assay", "EC50"],
 "data": [
  ["Cc1ccccc1-c1cc2nc(-c3ccc([N+](=O)[O-])cc3)cc(O)n2n1", "Streptococcus sp. 'group A'", "9.23 µM (active)"],
  ["CCN(CC)c1nc(C(F)(F)F)nc2c1nnn2Cc1ccccc1", "Streptococcus sp. 'group A'", "7.21 µM (active)"],
  ["O=C(Nc1nnc(C2=COCCO2)o1)c1cccc(C(F)(F)F)c1", "Streptococcus sp. 'group A'", "2.96 µM (active)"]
]}

Now turn to the next molecule.
Provide EC50 value for the following molecule: Cc1ccc(C(=O)NNC2=Nc3cccc4cccc2c34)cc1
3.26 µM (active)

###

Biological target: UniProt P21462
Sequence (P21462 whole entry): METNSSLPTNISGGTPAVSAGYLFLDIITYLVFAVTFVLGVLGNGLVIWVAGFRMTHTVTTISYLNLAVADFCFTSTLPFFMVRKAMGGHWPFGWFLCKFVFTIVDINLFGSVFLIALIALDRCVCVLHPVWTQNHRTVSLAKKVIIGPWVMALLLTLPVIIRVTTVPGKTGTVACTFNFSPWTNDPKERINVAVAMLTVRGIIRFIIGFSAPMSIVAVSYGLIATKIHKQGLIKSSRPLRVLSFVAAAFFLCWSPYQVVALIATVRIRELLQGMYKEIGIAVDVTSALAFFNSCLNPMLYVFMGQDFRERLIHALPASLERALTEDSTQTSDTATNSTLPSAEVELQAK
Assay: formyl peptide receptor binders – dose response (AID 519)
Type: functional
Active and inactive are the calls of the source.
Listing of recorded Ki by entry.

Field: example entries. Status: answers known.
{"columns": ["molecule", "measured parameter", "recorded result"],
 "data": [
  ["O=C(Nc1ccc(Nc2ccccc2)cc1)c1ccc(Br)o1", "Ki", "> 66.7 µM (inactive)"],
  ["COC(=O)C1=[N+]([O-])OC(C(=O)OC)C1c1c[nH]c2ccccc12 (centres undefined)", "Ki", "> 66.7 µM (inactive)"],
  ["Cc1ccc(C)c(-n2c(CNC(=O)c3ccco3)nnc2SCC(=O)N2CCc3ccccc32)c1", "Ki", "> 66.7 µM (inactive)"]
]}

Now take the following molecule into account.
Kindly indicate its recorded Ki. Item: CCN(C(=O)Cc1c(C(=O)O)[nH]c2ccccc12)c1cc(OC)ccc1OC
18.4 µM (inactive)

###

Biological target: Large T antigen (Simian virus 40, UniProt P03070)
Sequence (P03070 whole entry): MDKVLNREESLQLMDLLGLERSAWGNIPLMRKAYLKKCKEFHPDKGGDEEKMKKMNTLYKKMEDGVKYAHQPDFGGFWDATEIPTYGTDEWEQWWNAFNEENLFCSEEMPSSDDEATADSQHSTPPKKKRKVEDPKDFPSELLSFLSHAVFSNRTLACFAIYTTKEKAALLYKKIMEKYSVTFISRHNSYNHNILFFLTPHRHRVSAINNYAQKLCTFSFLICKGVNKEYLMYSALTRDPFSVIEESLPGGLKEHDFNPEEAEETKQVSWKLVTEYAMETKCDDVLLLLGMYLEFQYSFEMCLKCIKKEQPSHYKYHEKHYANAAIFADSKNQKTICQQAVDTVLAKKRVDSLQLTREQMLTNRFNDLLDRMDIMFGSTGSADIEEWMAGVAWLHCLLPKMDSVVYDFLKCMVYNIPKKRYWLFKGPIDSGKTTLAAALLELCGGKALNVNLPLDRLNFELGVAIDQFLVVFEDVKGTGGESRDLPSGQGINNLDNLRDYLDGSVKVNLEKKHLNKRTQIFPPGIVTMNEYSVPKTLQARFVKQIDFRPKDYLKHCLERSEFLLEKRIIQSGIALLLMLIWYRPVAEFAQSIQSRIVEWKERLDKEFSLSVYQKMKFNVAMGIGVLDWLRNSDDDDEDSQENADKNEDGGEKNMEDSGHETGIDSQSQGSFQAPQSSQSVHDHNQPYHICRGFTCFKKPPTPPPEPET
Format: functional, Betapolyomavirus macacae
The source made the active and inactive calls.
Listed next: entries and their corresponding IC50.

Given CC(=O)c1ccc2c(c1)C1C=CCC1C(C(=O)O)N2 (stereo not given) , report its IC50 on Large T antigen (Simian virus 40, UniProt P03070).
50.6 µM (active)

Enter recorded IC50 with Large T antigen (Simian virus 40, UniProt P03070) for CCOc1ccc(NCc2cccn2-c2nnc(N3CCC(C(=O)NCCCN4CC(C)CC(C)C4)CC3)s2)cc1 (stereo not given) here.
19.3 µM (active)

Write down measured IC50 (Large T antigen (Simian virus 40, UniProt P03070)) for this compound. O=C(CC(=O)N/N=C/c1ccc(O)cc1)N/N=C/c1ccc(O)cc1
13.8 µM (active)

Param request: IC50 | system Large T antigen (Simian virus 40, UniProt P03070) | item Oc1ccc(-c2n[nH]c(=S)[nH]2)cc1
6.95 µM (active)

Give IC50 for Oc1ccc(C2=Nn3c(nnc3-c3ccco3)SC2)cc1O tested on Large T antigen (Simian virus 40, UniProt P03070).
3.26 µM (active)

Recall the reported IC50 of CCCCCCNC(=O)N[C@H](C(=O)NCCC[C@H]1CN2C(=NC[C@H]2C)N1CCC(c1ccccc1)c1ccccc1)C(C)O (stereo not given in full) when tested on Large T antigen (Simian virus 40, UniProt P03070).
> 100 µM (active)

Give reported IC50 for COc1cc2c(cc1OC)-c1cc(Nc3ccc(N(C)C)cc3)nc(=O)n1CC2 (Large T antigen (Simian virus 40, UniProt P03070))
2.74 µM (active)

State, for Large T antigen (Simian virus 40, UniProt P03070), measured IC50 of the compound listed here: COc1cc(/C=N/Nc2nncn2/N=C/c2ccc(O)c(OC)c2)ccc1O
12.9 µM (active)

Please tell me the measured IC50 for Oc1ccc2[nH]ccc2c1 ; system: Large T antigen (Simian virus 40, UniProt P03070).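 Further: Confirmatory-stage PubChem screen for compounds that inhibit SV40 T antigen.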
80.2 µM (active)

Report IC50 from Large T antigen (Simian virus 40, UniProt P03070) testing of COC(=O)c1[nH]c2ccccc2c1/C=C1\C(=O)NC(=O)N(c2ccc(OC)cc2)C1=O
89 µM (active)
